# maps each entry to its -logMIC
- System: Escherichia coli
- method notes: Antibacterial activity against Escherichia coli MTCC 1652 after 24 hr by tube dilution method
- Type: functional
# print the numeric value only

Examples with their reported -logMIC follow.
COc1cc(/C=N/c2c(O)cc(S(=O)(=O)O)c3ccccc23)cc(OC)c1OC 1.52
O=S(=O)(O)c1cc(O)c(/N=C/C=C/c2ccccc2)c2ccccc12 1.45
COc1cccc(/C=N/c2c(O)cc(S(=O)(=O)O)c3ccccc23)c1 1.46
O=S(=O)(O)c1cc(O)c(/N=C/c2cccc(O)c2)c2ccccc12 1.44
CCOc1cc(/C=N/c2c(O)cc(S(=O)(=O)O)c3ccccc23)ccc1O 1.49

-logMIC of O=Cc1ccc(/C=N/c2c(O)cc(S(=O)(=O)O)c3ccccc23)cc1 , assay on Escherichia coli, is 1.45

-logMIC of O=S(=O)(O)c1cc(O)c(/N=C/c2ccc(Cl)cc2)c2ccccc12 , assay on Escherichia coli, is 1.16

----------
- Tested on: Staphylococcus aureus
- method notes: Antibacterial activity against Staphylococcus aureus MTCC 2901 after 24 hr by tube dilution method
- Type: functional
# maps each entry to its -logMIC
# print the numeric value only

O=S(=O)(O)c1cc(O)c(/N=C/c2ccc(Cl)cc2Cl)c2ccccc12 1.2

-logMIC reading for COc1ccc(/C=N/c2c(O)cc(S(=O)(=O)O)c3ccccc23)cc1OC : 1.19

-logMIC reading for COc1cc(/C=N/c2c(O)cc(S(=O)(=O)O)c3ccccc23)ccc1O : 1.17

----------
- Tested on: Staphylococcus aureus
- method notes: Bactericidal activity against Staphylococcus aureus MTCC 2901
- Format: functional
readout label: MBC

Examples with their reported MBC follow.
COc1ccccc1/C=N/c1c(O)cc(S(=O)(=O)O)c2ccccc12 > 130 µM
O=Cc1ccc(/C=N/c2c(O)cc(S(=O)(=O)O)c3ccccc23)cc1 140 µM
O=S(=O)(O)c1cc(O)c(/N=C/C=C/c2ccccc2)c2ccccc12 > 140 µM
COc1cccc(/C=N/c2c(O)cc(S(=O)(=O)O)c3ccccc23)c1O 140 µM
COc1cc(/C=N/c2c(O)cc(S(=O)(=O)O)c3ccccc23)cc(OC)c1OC > 150 µM

Please examine the following record next.
MBC of COc1ccc(/C=N/c2c(O)cc(S(=O)(=O)O)c3ccccc23)cc1OC , assay on Staphylococcus aureus, is > 150 µM

----------
- Test system: Staphylococcus aureus
- method notes: Bactericidal activity against Staphylococcus aureus MTCC 2901
- Assay type: functional
readout label: MBC

MBC reading for O=S(=O)(O)c1cc(O)c(/N=C/c2cccc(O)c2)c2ccccc12 : > 130 µM

MBC reading for O=[N+]([O-])c1cccc(/C=N/c2c(O)cc(S(=O)(=O)O)c3ccccc23)c1 : > 140 µM

MBC reading for O=S(=O)(O)c1cc(O)c(/N=C/c2ccccc2Cl)c2ccccc12 : > 140 µM

MBC reading for O=S(=O)(O)c1cc(O)c(/N=C/c2ccc(Cl)cc2)c2ccccc12 : > 140 µM

----------
# maps each entry to its -logMIC
- Test system: Escherichia coli
- method notes: Antibacterial activity against Escherichia coli MTCC 1652 after 24 hr by tube dilution method
- Assay type: functional
# print the numeric value only

COc1ccccc1/C=N/c1c(O)cc(S(=O)(=O)O)c2ccccc12 1.46
O=S(=O)(O)c1cc(O)c(/N=C/c2ccccc2)c2ccccc12 1.42
COc1ccc(/C=N/c2c(O)cc(S(=O)(=O)O)c3ccccc23)cc1OC 1.49
COc1ccc(/C=N/c2c(O)cc(S(=O)(=O)O)c3ccccc23)cc1 1.46
O=S(=O)(O)c1cc(O)c(/N=C/c2ccc(Cl)cc2Cl)c2ccccc12 1.5
CCn1cc(C(=O)O)c(=O)c2cc(F)c(N3CCNCC3)cc21 2.61
COc1cc(/C=N/c2c(O)cc(S(=O)(=O)O)c3ccccc23)ccc1O 1.48
O=S(=O)(O)c1cc(O)c(/N=C/c2ccccc2Cl)c2ccccc12 1.46
O=[N+]([O-])c1cccc(/C=N/c2c(O)cc(S(=O)(=O)O)c3ccccc23)c1 1.47
COc1cccc(/C=N/c2c(O)cc(S(=O)(=O)O)c3ccccc23)c1O 1.48

-logMIC reading for O=CCCC/C=N/c1c(O)cc(S(=O)(=O)O)c2ccccc12 : 1.41

-logMIC reading for O=S(=O)(O)c1cc(O)c(/N=C/c2cccc(Cl)c2)c2ccccc12 : 1.46

----------
- Tested on: Staphylococcus aureus
- method notes: Antibacterial activity against Staphylococcus aureus MTCC 2901 after 24 hr by tube dilution method
- Format: functional
readout label: -logMIC

O=S(=O)(O)c1cc(O)c(/N=C/c2ccccc2Cl)c2ccccc12 1.16

-logMIC reading for O=S(=O)(O)c1cc(O)c(/N=C/C=C/c2ccccc2)c2ccccc12 : 1.15

-logMIC reading for O=[N+]([O-])c1cccc(/C=N/c2c(O)cc(S(=O)(=O)O)c3ccccc23)c1 : 1.17

----------
- System: Staphylococcus aureus
- method notes: Bactericidal activity against Staphylococcus aureus MTCC 2901
- Type: functional
# maps each entry to its MBC

MBC reading for O=S(=O)(O)c1cc(O)c(/N=C/c2ccccc2)c2ccccc12 : > 130 µM

MBC reading for COc1ccc(/C=N/c2c(O)cc(S(=O)(=O)O)c3ccccc23)cc1 : > 130 µM

MBC reading for O=S(=O)(O)c1cc(O)c(/N=C/c2ccc(Cl)cc2Cl)c2ccccc12 : > 140 µM

MBC reading for O=CCCC/C=N/c1c(O)cc(S(=O)(=O)O)c2ccccc12 : > 130 µM

----------
- Tested on: Staphylococcus aureus
- method notes: Antibacterial activity against Staphylococcus aureus MTCC 2901 after 24 hr by tube dilution method
- Type: functional
readout label: -logMIC
# print the numeric value only

Examples with their reported -logMIC follow.
O=S(=O)(O)c1cc(O)c(/N=C/c2cccc(O)c2)c2ccccc12 1.14
O=S(=O)(O)c1cc(O)c(/N=C/c2ccc(Cl)cc2)c2ccccc12 1.16

-logMIC reading for CCOc1cc(/C=N/c2c(O)cc(S(=O)(=O)O)c3ccccc23)ccc1O : 1.19

-logMIC reading for COc1cc(/C=N/c2c(O)cc(S(=O)(=O)O)c3ccccc23)cc(OC)c1OC : 1.22
